Tested on: A2780 cells
assay.summary: Proliferation assay, Cell Titre-Glo viability (Method 3)
Assay type: cell-based, human
cond: Homo sapiens, A2780, 72 h, A2780, 72-hour exposure; read-out: Inhibition of A2780 cell proliferation IC50
Provide the reported pIC50 of each item.
One number for each entry, as −log10 of the molar value.

> print(dat)
                                   compound  target.desc  measurement.name  data.value
1  CS(=O)(Cc1cc2nc(c1)Nc1cc(c(F)cn1)-c1ccc(F)cc1OCCCCN2)=NC(=O)OCc1ccccc1 (racemic)  A2780 cells             pIC50        7.42
2  CC(C)(C)OC(=O)N=S(C)(=O)Cc1cc2cc(c1)OCCCCNc1cc(F)ccc1-c1nc(ncc1F)N2 (racemic)  A2780 cells             pIC50        7.51
3  CS(=N)(=O)Cc1cc2cc(c1)OCCCCNc1cc(F)ccc1-c1nc(ncc1F)N2 (racemic)  A2780 cells             pIC50        8.09
4  CC(C)(C)OC(=O)N=S(C)(=O)Cc1cc2nc(c1)Nc1cc(c(F)cn1)-c1ccc(F)cc1OCCCN2 (racemic)  A2780 cells             pIC50        8.15

Batch request: pIC50 for each of the following compounds.
1. CC(C)(C)OC(=O)N=S(C)(=O)Cc1cc2cc(c1)OCCCNc1cc(F)ccc1-c1nc(ncc1F)N2 (racemic)
2. CN1CCCCOc2cc(F)ccc2-c2cc(ncc2F)Nc2cc(CS(C)(=N)=O)cc1n2 (racemic)
3. CS(=N)(=O)Cc1cc2cc(c1)OCCCCSc1cc(F)ccc1-c1nc(ncc1F)N2 (racemic)
4. CN1CCCCNc2cc(F)ccc2-c2nc(ncc2F)Nc2cc(CS(C)(=N)=O)cc1c2.O=CO (racemic)
5. CS(=N)(=O)Cc1cc2nc(c1)Nc1cc(c(F)cn1)-c1ccc(F)cc1OCCCCN2 (racemic)
6. CS(=N)(=O)Cc1cc2nc(c1)Nc1cc(c(F)cn1)-c1ccc(F)cc1OCCCN2 (racemic)
7. CS(=N)(=O)Cc1cc2cc(c1)OCCCNc1cc(F)ccc1-c1nc(ncc1F)N2 (racemic)

1. 7.72
2. 8.34
3. 7.35
4. 8.19
5. 8.26
6. 8.85
7. 8.33

Query the reported pIC50 for A2780 cells; item: C[S+]([O-])Cc1cc2nc(c1)OCCCCc1cc(F)ccc1-c1cc(ncc1F)N2 (racemic) 6.57
